Kindly supply the reported Ratio values for the records listed here.
test system: Plasmodium falciparum; assay: MMV: Compounds (1uM) were screened in a 72hr growth assay monitored by flow cytometry both in the presence and absence of supplemental isopentenyl pyrophosphate (IPP) 200uM. Compounds which fail to show anti-malarial activity when chemically rescued by IPP are therefore specific to the apicoplast. The values are expressed as the ratio of the corresponding activity with and without IPP, respectively.; assay type: functional, W2
Write no unit; give the number alone.

Quote Ratio reported for `COc1ccc(C)c2sc(N(Cc3cccnc3)C(=O)c3ccc(C#N)cc3)nc12` please.
0.971

Quote Ratio reported for `CCN(CC)CCNc1ncnc2c1[nH]c1ccc(Br)cc12` please.
0.9508

Quote Ratio reported for `CCCc1cc(O)c2c3c(c(=O)oc2c1)CN(C)CC3` please.
0.8028

Quote Ratio reported for CCCCCC(=O)N1c2ccccc2N=C2CC(c3ccc(OC)c(OC)c3)CC(O)=C2C1c1ccc(C(F)(F)F)cc1 (stereo not given) please.
0.7792

Quote Ratio reported for `O=C(Nc1cccc(C(F)(F)F)c1)c1cc(Cl)ccc1O` please.
0.9697

Quote Ratio reported for `O=C(Nc1ccc(N2CCN(Cc3ccccc3)CC2)cc1)c1cccs1.O=C(O)C(F)(F)F` please.
0.8148

Quote Ratio reported for CCCCC(O)(c1ccc(Cl)cc1)C(CN1CCOCC1)c1ccc(Cl)cc1.Cl (stereo not given) please.
1.074

Quote Ratio reported for `O=C(O)C(=O)O.Oc1ccc(Br)cc1CN1CCN(Cc2cccc(F)c2)CC1` please.
0.8333

Quote Ratio reported for `Cc1cc(Nc2ccc(Cl)cc2)n2nc(C(F)(F)F)nc2n1` please.
0.9718

Quote Ratio reported for `O=C(Nc1ccc(CN2CCOCC2)cc1)c1ccc(-c2cc(Cl)ccc2Cl)o1` please.
0.9054

----------
Kindly supply the reported Ratio values for the records listed here.
test system: Plasmodium falciparum; experiment: MMV: Compounds (1uM) were screened in a 72hr growth assay monitored by flow cytometry both in the presence and absence of supplemental isopentenyl pyrophosphate (IPP) 200uM. Compounds which fail to show anti-malarial activity when chemically rescued by IPP are therefore specific to the apicoplast. The values are expressed as the ratio of the corresponding activity with and without IPP, respectively.; format: functional, W2

Quote Ratio reported for COCCN(C(=O)Cc1cccs1)C(C(=O)NCc1ccc(OC)cc1)c1ccc(C(C)C)cc1 (stereo not given) please.
0.8315

Quote Ratio reported for `Cc1c(C)n(Cc2ccc(F)cc2)c2ccc(C(=O)NCc3ccco3)cc12` please.
1.212

Quote Ratio reported for `CCC(=O)Nc1nnc(Cc2ccc(OC)c(OC)c2)s1` please.
0.7213

Quote Ratio reported for CC(NCc1ccccc1)c1cc(Cl)ccc1O (stereo not given) please.
0.6957

Quote Ratio reported for COc1ccc(C(O)(CCC(C)C)C(CN2CCOCC2)c2ccc(Cl)cc2)cc1.Cl (stereo not given) please.
1.06

Quote Ratio reported for `Nc1ccc(-c2nc3cc(Cc4ccc5[nH]c(-c6ccc(N)cc6)nc5c4)ccc3[nH]2)cc1` please.
1.333

Quote Ratio reported for `CN1CCN(c2nc(Nc3ccc(O)cc3)nc3ccccc23)CC1.Cl` please.
0.8636

Quote Ratio reported for `COc1ccc(-c2nonc2NC(=O)c2cccc(C)c2)cc1OC` please.
1.066

Quote Ratio reported for `Cc1ccc2cc3c(N)c4c(C)ccc(C)c4nc3nc2c1` please.
1.095

Quote Ratio reported for CCOC(=O)C1=C(c2ccccc2)N=c2sc(=Cc3cc(C)n(-c4ccc(F)cc4)c3C)c(=O)n2C1c1cccc(OC)c1OC (stereo not given) please.
0.7267
